Cited source: patent US20250027068

biological target: pooled human IgG
Recorded endpoint: Enzyme Activity Endpoint Assay (purified): Fab'2 (ng/µL)

{"Protein": "PRT-228 (protein) MEVVEVWPYGQNPNGKTEILSQTEDSESLQRLRDIEDFQAEKKMQNVVYTKWLDGVDVKDHDFRKIVDGNIAYYATPLLNGRGFYDINKDFNRDSDKCAAAVAANMFHYWLDINRDNVDRFLRQNPEKHGIIELPDGQLKLSDFLNTYESDHGYRDKSKLFDFISNNFNGPVWTDKLLDNYINGYAYNYKYGRTIEDPTKNTSKINFFKEVFNEKILTNNHSIRNQNEFSDLLSEALYTGKAIGLSYGPAGLRHSLGHIISVWGADLDADGNVVAIYVTDSDDKKLTIGDERVGLKRYKISTDDENRLRLTAYEETHNTGGQIRGLWTLDTGKYAWADYFDKTEQTGTDQAEQLEHHHHHH", "Unit text": "ng/µL", "Observed": 195}
{"Protein": "PRT-282 (protein) MVTSVWTKGVTPPAKFTQGEDVFHAPYVANQGWYDITKTFNGKDDLLCGAATAGNMLHWWFDQNKEKIEAYLKKHPDKQKIMFGDQELLDVRKVINTKGDQTNSELFNYFRDKAFPNLSARRIGVMPDLVLDMFINGYYLNVYKTQTTDVNRTYQEKDRRGGIFDAVFTRGDQSKLLTSRHDFKEKNLKEISDLIKKELTEGKALGLSHTYANVRLNHVINLWGADFDSNGNLKAIYVTDSDSNASIGMKKYFVGVNSSGKVAISAKEIKEDNIGAQVLGLFTLSTGQDSWNQTN", "Unit text": "ng/µL", "Observed": 69}
{"Protein": "PRT-281 (protein) MVTSVWTKGVTPPAKFTQGEDVFHAPYVANQGWYDITKTFNGKDDLLCGAATAGNMLHWWFDQNKEKIEAYLKKHPDKQKIMFGDQELLDVRKVINTKGDQTNSELFNYFRDKAFPNLSARRIGVMPDLVLDMFINGYYLNVYKTQTTDVNRTYQEKDRRGGIFDAVFTRGDQSKLLTSRHDFKEKNLKEISDLIKKELTEGKALGLSHTYANVRIGHVINLWGADFDSNGNLKAIYVTDSDSNASIGMKKYFVGVNSSGKVAISAKEIKEDNIGAQVLGLFTLSTGQDSWNQTN", "Unit text": "ng/µL", "Observed": 673}
{"Protein": "PRT-298 (protein) MVTSVWTKGVTPPTDFIKGEDVFHAPYKAGQGWYDITKTFNGKDDLLCGAATAGNMLHWWFDQNKEYIEAYLKKHPEKQKIMFGDQELLDVRKAINTKGSQKNSELFNYFRDKAFPNLSARRLGVMPDLVLDMFINGYYLNVTKTQTTDVNRTYQEKDKRGGIFDAVFTRGDQSKLLTSRHDFKEKGLKEISDLIKQELTEGKALGLSHTYANVGINHVINLWGADFDSDGNLKAIYVTDSDSNASIGMKKYFVGVNSSGKVAISAKEIKEDNIGAQVLGLFTLSTGQDIWNQTN", "Unit text": "ng/µL", "Observed": 494}
